These entries and their values trace back to patent US20190209539A1.

Field: LNCaP-AR-F876L AG MAX % Stim. Provide a value for each of the molecules that follow.
ASSAYED SYSTEM: F876L mutant Androgen Receptor (AR-F876L) (Homo sapiens, UniProt P10275, F877L)
Construct: expressed in transfected cells; host or cells: LNCaP F876L cells with ARE firefly luciferase lentiviral construct
Sequence (P10275 whole entry F877L): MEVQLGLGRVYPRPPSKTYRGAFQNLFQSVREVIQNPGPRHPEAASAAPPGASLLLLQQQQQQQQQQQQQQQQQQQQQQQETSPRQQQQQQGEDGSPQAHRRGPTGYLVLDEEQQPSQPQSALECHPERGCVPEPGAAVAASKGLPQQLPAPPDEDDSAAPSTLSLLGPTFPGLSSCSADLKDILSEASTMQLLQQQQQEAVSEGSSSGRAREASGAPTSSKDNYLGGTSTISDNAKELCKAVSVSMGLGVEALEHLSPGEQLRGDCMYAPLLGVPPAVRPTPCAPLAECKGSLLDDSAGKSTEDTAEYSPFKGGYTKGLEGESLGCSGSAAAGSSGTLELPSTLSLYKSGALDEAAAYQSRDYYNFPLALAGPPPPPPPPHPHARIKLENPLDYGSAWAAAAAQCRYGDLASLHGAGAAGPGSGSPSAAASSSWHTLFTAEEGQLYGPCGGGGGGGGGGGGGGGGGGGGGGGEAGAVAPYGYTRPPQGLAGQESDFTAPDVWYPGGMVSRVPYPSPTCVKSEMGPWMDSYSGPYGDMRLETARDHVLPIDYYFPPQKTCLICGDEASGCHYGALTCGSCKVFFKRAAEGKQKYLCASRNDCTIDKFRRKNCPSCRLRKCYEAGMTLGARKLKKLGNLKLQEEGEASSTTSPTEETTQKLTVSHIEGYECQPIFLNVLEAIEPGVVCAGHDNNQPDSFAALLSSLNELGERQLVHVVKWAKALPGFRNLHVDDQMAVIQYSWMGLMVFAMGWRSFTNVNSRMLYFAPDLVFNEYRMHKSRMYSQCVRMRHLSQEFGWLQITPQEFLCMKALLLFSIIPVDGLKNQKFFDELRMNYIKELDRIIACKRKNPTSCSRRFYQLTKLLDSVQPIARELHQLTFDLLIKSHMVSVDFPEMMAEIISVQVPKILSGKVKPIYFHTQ
ASSAY OVERVIEW: LNCaP-AR-F876L AG: ARE luciferase reporter assay, agonist mode
Assay type: cell-based
RECORDED CONDITIONS: maximum % stimulation (agonist response), % of 1 μM R-1881 max
Just the number please, in %, no unit attached.

Record request: LNCaP-AR-F876L AG MAX % Stim value, item CNC(=O)c1ccc(N2C(=S)N(c3cnc(C#N)c(C)c3)C(=O)C2(C)C)cc1F
−0.3

// query LNCaP-AR-F876L AG MAX % Stim value for entry CN1CCN(CCCc2ccc(N3C(=S)N(c4cnc(C#N)c(C(F)(F)F)c4)C(=O)C34CCC4)cc2)CC1
0.4

What does the data say about its LNCaP-AR-F876L AG MAX % Stim? Entry: N#Cc1ncc(N2C(=O)C3(CCC3)N(c3ccc4ccncc4c3)C2=S)cc1C(F)(F)F
0.0

Return reported LNCaP-AR-F876L AG MAX % Stim; argument: CC(C)(O)CNC(=O)c1ccc(N2C(=S)N(c3cnc(C#N)c(C(F)(F)F)c3)C(=O)C23CCC3)cc1F
0.1

Which LNCaP-AR-F876L AG MAX % Stim reading was recorded for the molecule N#Cc1ncc(N2C(=O)C3(CCC3)N(c3ccc(C(=O)NCc4ccccn4)c(F)c3)C2=S)cc1C(F)(F)F ?
0.0

Need LNCaP-AR-F876L AG MAX % Stim, item CN1CCC(Oc2ccc(N3C(=S)N(c4cnc(C#N)c(C(F)(F)F)c4)C(=O)C34CCC4)cc2F)CC1
0.0

Consider the molecule shown here: N#Cc1ncc(N2C(=O)C3(CCC3)N(c3ccc(C(=O)NCc4cccnc4)c(F)c3)C2=S)cc1C(F)(F)F What is its recorded LNCaP-AR-F876L AG MAX % Stim?
0.8

# LNCaP-AR-F876L AG MAX % Stim lookup, item N#Cc1ncc(N2C(=O)C3(CCC3)N(c3cccc(CO)c3)C2=S)cc1C(F)(F)F
1.2

###

ASSAYED SYSTEM: rGABA-gated Cl− channel
ASSAY OVERVIEW: GABA-gated Cl Channel Antagonist Radioligand Binding Assay ([35S]-TBPS, cerebral cortex membranes)
RECORDED CONDITIONS: 3 nM [35S]-TBPS
QUANTITY: pIC50
Please report pIC50 as the negative decimal logarithm of the molar concentration, giving only the number.

Looking for the measured pIC50 of CN1CCC(Oc2ccc(N3C(=S)N(c4cnc(C#N)c(C(F)(F)F)c4)C(=O)C34CCC4)cc2)CC1 , can you help?
4.89

###

ASSAYED SYSTEM: wild-type Androgen Receptor (AR-wt) (Homo sapiens)
Construct: expressed in transfected cells; host or cells: LNCaP AR (cs) cells with ARE firefly luciferase lentiviral construct
ASSAY OVERVIEW: LNCaP-AR-wt AG: ARE luciferase reporter assay, agonist mode
Type: cell-based
RECORDED CONDITIONS: maximum % stimulation (agonist response), % of 1 μM R-1881 max
Method: A stable pooled-population cell line was generated using puromycin (Life Technologies) selection at 1:10,000 v/v. The protocol below was used for both cell lines and for testing of the compounds of Formula (I) of the present invention. LNCaP cells were grown to about 80% confluence, media removed and cells rinsed in Hank's balanced salt solution prior to separation from the plate with 0.05% Trypsin EDTA. […] After 1 h, plates were read for luminescence on a BMG Pherastar. […]
QUANTITY: LNCaP-AR-wt AG MAX % Stim (%)
Numbers only; they are read as %.

Look up LNCaP-AR-wt AG MAX % Stim for this molecule: N#Cc1ncc(N2C(=O)C3(CCC3)N(c3ccc(C(=O)NCc4ccccc4)c(F)c3)C2=S)cc1C(F)(F)F
0.9

What value of LNCaP-AR-wt AG MAX % Stim has been recorded for this entry: CN1CCN(CCCc2ccc(N3C(=S)N(c4cnc(C#N)c(C(F)(F)F)c4)C(=O)C34CCC4)cc2)CC1
0.7

What value of LNCaP-AR-wt AG MAX % Stim has been reported for the following molecule? N#Cc1ncc(N2C(=O)C3(CCC3)N(c3ccc4ccncc4c3)C2=S)cc1C(F)(F)F
−0.2

What value of measured LNCaP-AR-wt AG MAX % Stim is listed for N#Cc1ncc(N2C(=O)C3(CCC3)N(c3ccc(C(=O)NCc4cccnc4)c(F)c3)C2=S)cc1C(F)(F)F ?
1.5

Dear colleague, I am looking for the recorded LNCaP-AR-wt AG MAX % Stim of the following molecule: N#Cc1ncc(N2C(=O)C3(CCC3)N(c3ccc(Oc4cncnc4)cc3)C2=S)cc1C(F)(F)F
0.7

Give the measured LNCaP-AR-wt AG MAX % Stim of N#Cc1ncc(N2C(=O)C3(CCC3)N(c3ccc(C(=O)NCc4ccccc4Cl)c(F)c3)C2=S)cc1C(F)(F)F .
0.2

Look at this molecule and give its reported LNCaP-AR-wt AG MAX % Stim. Cc1cc(N2C(=O)C3(CCC3)N(c3ccc(OC4CCOCC4)cc3)C2=S)cnc1C#N
1.1

Record request: LNCaP-AR-wt AG MAX % Stim value, item N#Cc1ncc(N2C(=O)C3(CCC3)N(c3ccc(C(=O)NCc4ccccn4)c(F)c3)C2=S)cc1C(F)(F)F
−0.2
